Target: T1, rat α-CGRP (Rattus norvegicus, UniProt P01256)
T1 construct: rat α (1-37); purchased GenScript Corporation or Global Peptide Services
T1 sequence (P01256 83-119 limits assumed): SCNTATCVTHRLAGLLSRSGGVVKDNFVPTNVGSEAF
Assay: Biacore SPR affinity of Fab fragments to N-biotinylated rat α-CGRP on SA chip
Format: binding
Conditions: 37° C., screening mode except underlined values
Readout name: α-rat koff (s⁻¹)
// return numeric value only (unit: s⁻¹, not printed)

The recorded α-rat koff for M37: G1 variant; L1 R28N T30S; H2 A57G; HC-FW3 L99T A100V (antibody, V domains shown) VH: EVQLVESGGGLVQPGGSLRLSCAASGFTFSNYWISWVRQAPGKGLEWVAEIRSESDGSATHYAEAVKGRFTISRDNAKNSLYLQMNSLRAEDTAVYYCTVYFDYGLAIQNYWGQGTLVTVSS VL: EIVLTQSPATLSLSPGERATLSCKASKNVSTYVSWYQQKPGQAPRLLIYGASNRYLGIPARFSGSGSGTDFTLTISSLEPEDFAVYYCSQSYNYPYTFGQGTKLEIK is 0.00145
